# ASSAY METHOD TEXT: total protein half-life in vivo (active degradation + dilution); higher = more stable protein
# TEST PARAMETERS: wild type E. coli NCM3722; growth: N-lim chemostat; doubling time 6 h
# key: entry, value: total protein half-life in vivo
Give just the numeric value; h need not be written.

# RESIDUE SEQUENCE, READOUT LABEL, RECORDED RESULT
data = [
    ("MNTISSLETTDLPAAYHIEQRAHAFPWSEKTFASNQGERYLNFQLTQNGKMAAFAITQVVLDEATLFNIAVDPDYQRQGLGRALLEHLIDELEKRGVATLWLEVRASNAAAIALYESLGFNEATIRRNYYPTTDGREDAIIMALPISM [P0A944]", "total protein half-life in vivo", 3.85),
    ("MTIAIVIGTHGWAAEQLLKTAEMLLGEQENVGWIDFVPGENAETLIEKYNAQLAKLDTTKGVLFLVDTWGGSPFNAASRIVVDKEHYEVIAGVNIPMLVETLMARDDDPSFDELVALAVETGREGVKALKAKPVEKAAPAPAAAAPKAAPTPAKPMGPNDYMVIGLARIDDRLIHGQVATRWTKETNVSRIIVVSDEVAADTVRKTLLTQVAPPGVTAHVVDVAKMIRVYNNPKYAGERVMLLFTNPTDVERLVEGGVKITSVNVGGMAFRQGKTQVNNAVSVDEKDIEAFKKLNARGIELEVRKVSTDPKLKMMDLISKIDK", "total protein half-life in vivo", 5.95),
    ("MKTETPSVKIVAITADEAGQRIDNFLRTQLKGVPKSMIYRILRKGEVRVNKKRIKPEYKLEAGDEVRIPPVRVAEREEEAVSPHLQKVAALADVILYEDDHILVLNKPSGTAVHGGSGLSFGVIEGLRALRPEARFLELVHRLDRDTSGVLLVAKKRSALRSLHEQLREKGMQKDYLALVRGQWQSHVKSVQAPLLKNILQSGERIVRVSQEGKPSETRFKVEERYAFATLVRCSPVTGRTHQIRVHTQYAGHPIAFDDRYGDREFDRQLTEAGTGLNRLFLHAAALKFTHPGTGEVMRIEAPMDEGLKRCLQKLRNAR [P0AA39]", "total protein half-life in vivo", 5.21),
    ("MNLDDKSLFLDAMEDVQPLKRATDVHWHPTRNQRAPQRIDTLQLDNFLTTGFLDIIPLSQPLEFRREGLQHGVLDKLRSGKYPQQASLNLLRQPVEECRKMVFSFIQQALADGLRNVLIIHGKGRDDKSHANIVRSYVARWLTEFDDVQAYCTALPHHGGSGACYVALRKTAQAKQENWERHAKRSR", "total protein half-life in vivo", 1.06),
    ("MGFLSGKRILVTGVASKLSIAYGIAQAMHREGAELAFTYQNDKLKGRVEEFAAQLGSDIVLQCDVAEDASIDTMFAELGKVWPKFDGFVHSIGFAPGDQLDGDYVNAVTREGFKIAHDISSYSFVAMAKACRSMLNPGSALLTLSYLGAERAIPNYNVMGLAKASLEANVRYMANAMGPEGVRVNAISAGPIRTLAASGIKDFRKMLAHCEAVTPIRRTVTIEDVGNSAAFLCSDLSAGISGEVVHVDGGFSIAAMNELELK [P0AEK4]", "total protein half-life in vivo", 5.28),
]

In the following, a different sequence is considered.
[ask] Read the entry MAAINTKVKKAVIPVAGLGTRMLPATKAIPKEMLPLVDKPLIQYVVNECIAAGITEIVLVTHSSKNSIENHFDTSFELEAMLEKRVKRQLLDEVQSICPPHVTIMQVRQGLAKGLGHAVLCAHPVVGDEPVAVILPDVILDEYESDLSQDNLAEMIRRFDETGHSQIMVEPVADVTAYGVVDCKGVELAPGESVPMVGVVEKPKADVAPSNLAIVGRYVLSADIWPLLAKTPPGAGDEIQLTDAIDMLIEKETVEAYHMKGKSHDCGNKLGYMQAFVEYGIRHNTLGTEFKAWLEEEMGIKK [P0AEP3] and write its reported total protein half-life in vivo.
[reply] 4.65

---

# ASSAY METHOD TEXT: total protein half-life in vivo (active degradation + dilution); higher = more stable protein
# TEST PARAMETERS: wild type E. coli NCM3722; growth: C-lim chemostat; doubling time 12 h
READOUT LABEL: total protein half-life in vivo
Don't forget the unit after the number, please.

# example entries with known answers
# RESIDUE SEQUENCE, total protein half-life in vivo
rows = [
    ("MSKAGASLATCYGPVSADVIAKAENIRLLILDVDGVLSDGLIYMGNNGEELKAFNVRDGYGIRCALTSDIEVAIITGRKAKLVEDRCATLGITHLYQGQSNKLIAFSDLLEKLAIAPENVAYVGDDLIDWPVMEKVGLSVAVADAHPLLIPRADYVTRIAGGRGAVREVCDLLLLAQGKLDEAKGQSI [P0ABZ4]", "11.2 h"),
    ("MIQPISGPPPGQPPGQGDNLPSGTGNQPLSSQQRTSLESLMTKVTSLTQQQRAELWAGIRHDIGLSGDSPLLSRHFPAAEHNLAQRLLAAQKSHSARQLLAQLGEYLRLGNNRQAVTDYIRHNFGQTPLNQLSPEQLKTILTLLQEGKMVIPQPQQREATDRPLLPAEHNALKQLVTKLAAATGEPSKQIWQSMLELSGVKDGELIPAKLFNHLVTWLQARQTLSQQNTPTLESLQMTLKQPLDASELAALSAYIQQKYGLSAQSSLSSAQAEDILNQLYQRRVKGIDPRVMQPLLNPFPPMMDTLQNMATRPALWILLVAIILMLVWLVR", "6.56 h"),
    ("MKTLGEFIVEKQHEFSHATGELTALLSAIKLGAKIIHRDINKAGLVDILGASGAENVQGEVQQKLDLFANEKLKAALKARDIVAGIASEEEDEIVVFEGCEHAKYVVLMDPLDGSSNIDVNVSVGTIFSIYRRVTPVGTPVTEEDFLQPGNKQVAAGYVVYGSSTMLVYTTGCGVHAFTYDPSLGVFCLCQERMRFPEKGKTYSINEGNYIKFPNGVKKYIKFCQEEDKSTNRPYTSRYIGSLVADFHRNLLKGGIYLYPSTASHPDGKLRLLYECNPMAFLAEQAGGKASDGKERILDIIPETLHQRRSFFVGNDHMVEDVERFIREFPDA [P0A993]", "8.6 h"),
    ("MQENYKILVVDDDMRLRALLERYLTEQGFQVRSVANAEQMDRLLTRESFHLMVLDLMLPGEDGLSICRRLRSQSNPMPIIMVTAKGEEVDRIVGLEIGADDYIPKPFNPRELLARIRAVLRRQANELPGAPSQEEAVIAFGKFKLNLGTREMFREDEPMPLTSGEFAVLKALVSHPREPLSRDKLMNLARGREYSAMERSIDVQISRLRRMVEEDPAHPRYIQTVWGLGYVFVPDGSKA [P0AA16]", "10.3 h"),
]

[ask] Read the entry MPSIRLADLAQQLDAELHGDGDIVITGVASMQSAQTGHITFMVNPKYREHLGLCQASAVVMTQDDLPFAKSAALVVKNPYLTYARMAQILDTTPQPAQNIAPSAVIDATAKLGNNVSIGANAVIESGVELGDNVIIGAGCFVGKNSKIGAGSRLWANVTIYHEIQIGQNCLIQSGTVVGADGFGYANDRGNWVKIPQIGRVIIGDRVEIGACTTIDRGALDDTIIGNGVIIDNQCQIAHNVVIGDNTAVAGGVIMAGSLKIGRYCMIGGASVINGHMEICDKVTVTGMGMVMRPITEPGVYSSGIPLQPNKVWRKTAALVMNIDDMSKRLKSLERKVNQQD and write its reported total protein half-life in vivo.
[reply] 12.2 h

[ask] Read the entry MIYPDEAMLYAPVEWHDCSEGFEDIRYEKSTDGIAKITINRPQVRNAFRPLTVKEMIQALADARYDDNIGVIILTGAGDKAFCSGGDQKVRGDYGGYKDDSGVHHLNVLDFQRQIRTCPKPVVAMVAGYSIGGGHVLHMMCDLTIAADNAIFGQTGPKVGSFDGGWGASYMARIVGQKKAREIWFLCRQYDAKQALDMGLVNTVVPLADLEKETVRWCREMLQNSPMALRCLKAALNADCDGQAGLQELAGNATMLFYMTEEGQEGRNAFNQKRQPDFSKFKRNP [P0ABU0] and write its reported total protein half-life in vivo.
[reply] 9.64 h

[ask] Read the entry MAIILGIDPGSRVTGYGVIRQVGRQLSYLGSGCIRTKVDDLPSRLKLIYAGVTEIITQFQPDYFAIEQVFMAKNADSALKLGQARGVAIVAAVNQELPVFEYAARQVKQTVVGIGSAEKSQVQHMVRTLLKLPANPQADAADALAIAITHCHVSQNAMQMSESRLNLARGRLR [P0A814] and write its reported total protein half-life in vivo.
[reply] 6.6 h

[ask] Read the entry MINYGVVGVGYFGAELARFMNMHDNAKITCVYDPENGENIARELQCINMSSLDALVSSKLVDCVIVATPNYLHKEPVIKAAKNKKHVFCEKPIALSYEDCVDMVKACKEAGVTFMAGHIMNFFNGVQYARKLIKEGVIGEILSCHTKRNGWENKQERLSWKKMKEQSGGHLYHHIHELDCVQHLLGEIPETVTMIGGNLAHSGPGFGNEDDMLFMTLEFPSGKLATLEWGSAFNWPEHYVIINGTKGSIKIDMQETAGSLRIGGQTKHFLVHETQEEDDDRRKGNMTSEMDGAIAYGHPGKKTPLWLASLIRKETLFLHNILCGAKPEEDYIDLLNGEAAMSAIATADAATLSRSQDRKVKISEIIKHTSVM and write its reported total protein half-life in vivo.
[reply] 11.2 h

[ask] Read the entry MIKRVLVVSMVGLSLVGCVNNDTLSGDVYTASEAKQVQNVSYGTIVNVRPVQIQGGDDSNVIGAIGGAVLGGFLGNTVGGGTGRSLATAAGAVAGGVAGQGVQSAMNKTQGVELEIRKDDGNTIMVVQKQGNTRFSPGQRVVLASNGSQVTVSPR [P0A905] and write its reported total protein half-life in vivo.
[reply] 9.39 h

[ask] Read the entry MWYQKTLTLSAKSRGFHLVTDEILNQLADMPRVNIGLLHLLLQHTSASLTLNENCDPTVRHDMERFFLRTVPDNGNYEHDYEGADDMPSHIKSSMLGTSLVLPVHKGRIQTGTWQGIWLGEHRIHGGSRRIIATLQGE [P0AF48] and write its reported total protein half-life in vivo.
[reply] 11.9 h

[ask] Read the entry MARINRISITLCALLFTTLPLTPMAHASKQARESSATTHITKKADKKKSTATTKKTQKTAKKAASKSTTKSKTASSVKKSSITASKNAKTRSKHAVNKTASASFTEKCTKRKGYKSHCVKVKNAASGTLADAHKAKVQKATKVAMNKLMQQIGKPYRWGGSSPRTGFDCSGLVYYAYKDLVKIRIPRTANEMYHLRDAAPIERSELKNGDLVFFRTQGRGTADHVGVYVGNGKFIQSPRTGQEIQITSLSEDYWQRHYVGARRVMTPKTLR and write its reported total protein half-life in vivo.
[reply] 9.36 h
